assay.target: hH1R (Homo sapiens)
Sequence (P35367 whole entry): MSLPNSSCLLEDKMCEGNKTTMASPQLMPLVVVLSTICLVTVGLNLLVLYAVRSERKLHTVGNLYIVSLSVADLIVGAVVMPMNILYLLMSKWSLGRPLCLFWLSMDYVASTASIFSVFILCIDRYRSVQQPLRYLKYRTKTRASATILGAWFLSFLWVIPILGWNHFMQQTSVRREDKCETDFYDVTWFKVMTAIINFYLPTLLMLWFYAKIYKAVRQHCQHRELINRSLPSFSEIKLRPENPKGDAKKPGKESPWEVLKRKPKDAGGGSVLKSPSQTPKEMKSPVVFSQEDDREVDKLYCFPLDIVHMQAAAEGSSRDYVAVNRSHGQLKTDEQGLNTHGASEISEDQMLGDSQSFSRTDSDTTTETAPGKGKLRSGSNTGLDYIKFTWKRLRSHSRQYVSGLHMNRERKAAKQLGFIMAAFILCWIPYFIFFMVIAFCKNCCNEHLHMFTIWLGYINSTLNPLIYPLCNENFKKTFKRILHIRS
test.details: biochemical
Type: binding
details: hH1R pKi
readout.kind: Ki

1) CCCCNC(=N)NCCCc1c[nH]cn1 : > 10 µM
2) c1nc(CCCNC2=NCCCN2)c[nH]1 : > 10 µM
3) Cc1nc(N)sc1CCCNC(=N)NCCCCCCCCNC(=N)NCCCc1c[nH]cn1 : > 1 µM

Here is the next item to consider.
Problem: Fill in the blank: the reported Ki of N=C(NCCCCCCCCNC(=N)NCCCc1cnc(N)s1)NCCCc1c[nH]cn1 is ____.
Solution: > 1 µM

----------
assay.target: gpH1R (Cavia porcellus, UniProt P31389)
Sequence (P31389 whole entry): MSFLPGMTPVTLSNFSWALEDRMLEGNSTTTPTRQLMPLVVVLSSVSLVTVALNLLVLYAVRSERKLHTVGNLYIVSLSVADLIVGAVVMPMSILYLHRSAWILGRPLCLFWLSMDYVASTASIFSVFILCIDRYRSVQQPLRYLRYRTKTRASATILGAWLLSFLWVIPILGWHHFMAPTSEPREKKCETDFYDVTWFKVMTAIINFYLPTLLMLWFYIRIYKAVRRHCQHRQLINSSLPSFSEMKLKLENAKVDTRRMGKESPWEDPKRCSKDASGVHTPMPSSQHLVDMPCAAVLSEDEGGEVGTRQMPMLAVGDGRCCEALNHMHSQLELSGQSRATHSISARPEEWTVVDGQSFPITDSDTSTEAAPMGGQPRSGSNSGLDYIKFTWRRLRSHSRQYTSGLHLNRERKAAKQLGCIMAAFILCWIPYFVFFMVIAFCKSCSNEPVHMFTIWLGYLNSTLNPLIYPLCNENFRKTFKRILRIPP
test.details: Histamine H1 receptor assay on isolated guinea pig ileum
Overview of reported Kb across a group of molecules:
Express your answer in µM, writing the number without its unit.

Problem: Recorded Kb of N=C(NCCCCCCCCNC(=N)NCCCn1ccnc1)NCCCn1ccnc1 , please.
Solution: 4.27

Problem: Proceed to CCCCCNC(=N)NCCCc1c[nH]cn1
Solution: 4.47

----------
assay.target: hH4R (Homo sapiens, UniProt Q9H3N8)
Sequence (Q9H3N8 whole entry): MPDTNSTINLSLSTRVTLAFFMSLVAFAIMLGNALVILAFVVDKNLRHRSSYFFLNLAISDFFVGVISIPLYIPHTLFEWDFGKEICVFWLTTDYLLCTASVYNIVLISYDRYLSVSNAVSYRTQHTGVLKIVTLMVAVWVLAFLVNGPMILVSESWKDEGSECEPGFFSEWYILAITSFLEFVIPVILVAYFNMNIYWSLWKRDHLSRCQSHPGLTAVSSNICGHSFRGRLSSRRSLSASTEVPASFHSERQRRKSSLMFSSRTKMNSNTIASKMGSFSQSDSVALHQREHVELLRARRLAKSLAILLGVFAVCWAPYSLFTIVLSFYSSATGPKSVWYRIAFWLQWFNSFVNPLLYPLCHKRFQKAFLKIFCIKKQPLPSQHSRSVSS
test.details: [35S]GTPγS binding assay, Sf9 cell membranes
Format: biochemical
readout.kind: Kb

1) N=C(NCCCCCCCCNC(=N)NCCCc1cnc(N)s1)NCCCc1cnc(N)s1 : 263 µM
2) Cc1nc(N)sc1CCCNC(=N)NCCCCCCCCNC(=N)NCCCc1cnc(N)s1 : 186 µM
3) CCCCCCCCNC(=N)NCCCc1c[nH]cn1 : 209 µM
4) Cc1nc(N)sc1CCCNC(=N)NCCCCCCCCNC(=N)NCCCc1c[nH]cn1 : 204 µM
5) N=C(NCCCCCCCCCCCCNC(=N)NCCCc1c[nH]cn1)NCCCc1c[nH]cn1 : 324 µM

Problem: // returns reported Kb for input N=C(NCCCCCCCCNC(=N)NCCCc1cnc(N)s1)NCCCc1c[nH]cn1
Solution: 372 µM

Problem: Now consider N=C(NCCCCCCCCNC(=N)NCCCc1c[nH]cn1)NCCCc1c[nH]cn1 and answer again.
Solution: 407 µM

----------
assay.target: hH3R (Homo sapiens, UniProt Q9Y5N1)
Sequence (Q9Y5N1 whole entry): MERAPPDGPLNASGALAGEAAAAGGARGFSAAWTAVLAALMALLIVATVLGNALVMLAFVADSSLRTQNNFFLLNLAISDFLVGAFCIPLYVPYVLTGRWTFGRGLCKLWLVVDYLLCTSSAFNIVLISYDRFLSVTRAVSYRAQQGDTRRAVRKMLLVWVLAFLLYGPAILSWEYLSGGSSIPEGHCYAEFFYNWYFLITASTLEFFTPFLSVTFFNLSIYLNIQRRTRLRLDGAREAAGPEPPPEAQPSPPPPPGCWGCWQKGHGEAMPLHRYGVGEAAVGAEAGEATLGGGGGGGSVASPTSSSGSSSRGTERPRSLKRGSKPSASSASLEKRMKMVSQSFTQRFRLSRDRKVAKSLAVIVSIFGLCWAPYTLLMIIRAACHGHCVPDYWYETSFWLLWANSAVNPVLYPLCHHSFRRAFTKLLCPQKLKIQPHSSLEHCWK
test.details: Radioligand competition binding with [3H]Nα-methylhistamine, Sf9 cell membranes
details: hH3R pKi
readout.kind: Ki (nM)
Response body: numeric value in nM, unit text excluded.

Problem: Write down the reported Ki of c1nc(CCCNC2=NCCCN2)c[nH]1 , test system: hH3R (Homo sapiens, UniProt Q9Y5N1).
Solution: 186

----------
Known gpH2R Emax of a selection of molecules
assay.target: gpH2R (Cavia porcellus)
Sequence (P47747 whole entry): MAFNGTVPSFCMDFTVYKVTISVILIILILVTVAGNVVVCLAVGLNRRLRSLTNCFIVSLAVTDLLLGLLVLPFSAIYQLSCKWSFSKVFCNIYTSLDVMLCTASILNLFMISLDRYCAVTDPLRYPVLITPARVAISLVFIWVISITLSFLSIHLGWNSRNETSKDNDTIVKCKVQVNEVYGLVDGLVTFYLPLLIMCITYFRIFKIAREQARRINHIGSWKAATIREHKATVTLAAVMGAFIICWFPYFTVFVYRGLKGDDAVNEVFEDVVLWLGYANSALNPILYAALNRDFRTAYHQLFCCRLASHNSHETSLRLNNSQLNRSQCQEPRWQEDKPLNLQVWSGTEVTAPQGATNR
Set-up: species or system guinea pig
Provide a numeric answer; units are not to be included.

1) CC(C)NC(=N)NCCCc1c[nH]cn1 : 0.87
2) CC(C)(C)NC(=N)NCCCc1c[nH]cn1 : 0.92
3) CCCCCCCCCCCCNC(=N)NCCCc1cnc(N)s1 : 0.70
4) CCCNC(=N)NCCCc1c[nH]cn1 : 0.83
5) CC(C)CCNC(=N)NCCCc1c[nH]cn1 : 0.89

Problem: # input molecule: CCCCCCCCNC(=N)NCCCc1c[nH]cn1 ; wanted: its gpH2R Emax
Solution: 1.13

Problem: Would you kindly repeat that for Cc1nc(N)sc1CCCNC(=N)NCCCCCCCCNC(=N)NCCCc1cnc(N)s1 ?
Solution: 0.88

Problem: Next molecule up: N=C(NCCCCCCCCCCNC(=N)NCCCc1c[nH]cn1)NCCCc1c[nH]cn1
Solution: 0.71
